Target: T1, human APJ receptor (human, UniProt P35414 1-380)
T1 sequence (looked up): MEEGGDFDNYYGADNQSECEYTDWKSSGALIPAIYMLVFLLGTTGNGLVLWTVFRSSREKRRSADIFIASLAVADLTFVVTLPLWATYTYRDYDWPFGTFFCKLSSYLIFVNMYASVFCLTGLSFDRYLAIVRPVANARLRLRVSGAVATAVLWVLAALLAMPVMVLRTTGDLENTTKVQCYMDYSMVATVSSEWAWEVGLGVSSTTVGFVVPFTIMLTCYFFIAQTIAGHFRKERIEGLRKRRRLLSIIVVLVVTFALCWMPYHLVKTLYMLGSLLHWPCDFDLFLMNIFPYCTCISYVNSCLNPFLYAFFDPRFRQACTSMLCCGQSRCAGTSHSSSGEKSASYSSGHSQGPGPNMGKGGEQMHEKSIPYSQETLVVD
Assay: cell-based or functional assay
Starred links: 1 amine or outer side, 2 acyl side, 3 side chain; linkers in the order of their positions; H or OH if unused. Non-standard residues stand in square brackets, D forms with d. *: point of attachment. AC4Abu = α-carboxy-4-aminobutyric acid, O=C(C(CCN[*:1])C(=O)[*:3])[*:2]; Oic = O=C(O)[C@@H]1C[C@@H]2CCCC[C@@H]2N1; Phe(4-Cl) = N[C@@H](Cc1ccc(Cl)cc1)C(=O)O; γGlu = O=C(O)[C@H](CCC(=O)[*:2])N[*:1]; NMeR = CN[C@@H](CCCNC(=N)N)C(=O)O; Tridecanoyl = CCCCCCCCCCCCC(=O)*; Cha = N[C@@H](CC1CCCCC1)C(=O)O; αMeP = C[C@@]1(C(=O)O)CCCN1; Nle = CCCC[C@H](N)C(=O)O; AEEA = NCCOCCOCC(=O)O; Aib = CC(C)(N)C(=O)O; BLeu = β-leucine
outcome measure: EC50 Human APJ Receptor (GTPγS assay) (nM)
Write the number in nM without appending the unit.

Recorded EC50 Human APJ Receptor (GTPγS assay), per entry:
1) Tridecanoyl-[γGlu][AEEA][AEEA]QP[NMeR][Cha]SHKG[Oic][Nle][Aib][Phe(4-Cl)]-OH (SMILES CCCCCCCCCCCCC(=O)N[C@@H](CCC(=O)NCCOCCOCC(=O)NCCOCCOCC(=O)N[C@@H](CCC(N)=O)C(=O)N1CCC[C@H]1C(=O)N(C)[C@@H](CCCNC(=N)N)C(=O)N[C@@H](CC1CCCCC1)C(=O)N[C@@H](CO)C(=O)N[C@@H](Cc1c[nH]cn1)C(=O)N[C@@H](CCCCN)C(=O)NCC(=O)N1[C@H](C(=O)N[C@@H](CCCC)C(=O)NC(C)(C)C(=O)N[C@@H](Cc2ccc(Cl)cc2)C(=O)O)C[C@@H]2CCCC[C@@H]21)C(=O)O) [Apelin polypeptide SEQ ID NO: 520] | 9.18
2) Tridecanoyl-[γGlu][AEEA][AEEA]QR[NMeR][BLeu]SHKG[Oic][Nle]P[Phe(4-Cl)]-OH [Apelin polypeptide SEQ ID NO: 447] | 9.66
3) Tridecanoyl-[γGlu][AEEA][AEEA][dQ]R[αMeP][Nle][BLeu]SHKG[Oic][Nle][αMeP][Phe(4-Cl)]-OH [Apelin polypeptide SEQ ID NO: 523] | 25.6
4) Tridecanoyl-[γGlu][AEEA][AEEA]QRP[NMeR]LSHHGP[Nle]P[Phe(4-Cl)]-OH (SMILES CCCCCCCCCCCCC(=O)N[C@@H](CCC(=O)NCCOCCOCC(=O)NCCOCCOCC(=O)N[C@@H](CCC(N)=O)C(=O)N[C@@H](CCCNC(=N)N)C(=O)N1CCC[C@H]1C(=O)N(C)[C@@H](CCCNC(=N)N)C(=O)N[C@@H](CC(C)C)C(=O)N[C@@H](CO)C(=O)N[C@@H](Cc1c[nH]cn1)C(=O)N[C@@H](Cc1c[nH]cn1)C(=O)NCC(=O)N1CCC[C@H]1C(=O)N[C@@H](CCCC)C(=O)N1CCC[C@H]1C(=O)N[C@@H](Cc1ccc(Cl)cc1)C(=O)O)C(=O)O) [Apelin polypeptide SEQ ID NO: 448] | 0.133

Record summary for Tridecanoyl-[AC4Abu][AEEA][AEEA]QRP[NMeR][Cha]SHKG[Aib][Nle]P[Phe(4-Cl)]-OH (SMILES CCCCCCCCCCCCC(=O)NCCC(C(=O)O)C(=O)NCCOCCOCC(=O)NCCOCCOCC(=O)N[C@@H](CCC(N)=O)C(=O)N[C@@H](CCCNC(=N)N)C(=O)N1CCC[C@H]1C(=O)N(C)[C@@H](CCCNC(=N)N)C(=O)N[C@@H](CC1CCCCC1)C(=O)N[C@@H](CO)C(=O)N[C@@H](Cc1c[nH]cn1)C(=O)N[C@@H](CCCCN)C(=O)NCC(=O)NC(C)(C)C(=O)N[C@@H](CCCC)C(=O)N1CCC[C@H]1C(=O)N[C@@H](Cc1ccc(Cl)cc1)C(=O)O) [Apelin polypeptide SEQ ID NO: 414] : reported EC50 Human APJ Receptor (GTPγS assay) = 3.39
